# System: cGMP-PDE I
# assay_summary: cGMP-PDE I inhibitory activity (cyclic nucleotide hydrolysis, isolated PDE isozyme)
# Type: biochemical, various animal species and man
# test_parameters: 0.1 μM
measured_parameter: Percent Inhibition cGMP-PDE I (%)
Number only, in %; omit the unit.

CCc1[nH]n(C2CCCC2)c2nc(-c3ccncc3OC)nc(=O)c1-2 [Example 128c] = 71

If you can, please state the reported Percent Inhibition cGMP-PDE I value of CCc1nn(C2CCCC2)c2nc(C3CCN(C)c4ccccc43)[nH]c(=O)c12 (stereo not shown) [Example 10b] .
24

Look up Percent Inhibition cGMP-PDE I: COc1cnccc1-c1nc2n(C3CCCC3)[nH]c(C(F)(F)F)c-2c(=O)n1
68

What value of measured Percent Inhibition cGMP-PDE I is listed for CCc1[nH]n(C2CCCC2)c2nc(-c3ccncc3OCCOC)nc(=O)c1-2 [Example 131b] ?
61

====

# Test system: cGMP-PDE I
# assay_summary: cGMP-PDE I inhibitory activity (cyclic nucleotide hydrolysis, isolated PDE isozyme)
# Format: biochemical, various animal species and man
# test_parameters: 1 μM
The entries below are paired with their reported Percent Inhibition cGMP-PDE I.
# do not omit the unit; it follows the number

CCc1[nH]n(C2CCCC2)c2nc(-n3ccnc3)nc(=O)c1-2 [Example 122d] = 16%
Cc1nn(C2CCCC2)c2nc(C3CCNCC3)[nH]c(=O)c12 [Example 109, hydrate] = 7%
Cc1[nH]n(Cc2cccc(C(=O)O)c2)c2nc(-c3ccncc3)nc(=O)c1-2 = 4%
Cc1[nH]n(Cc2ccc(C(=O)O)cc2)c2nc(-c3ccncc3)nc(=O)c1-2 = 0%
CC(=O)N1CCC(c2nc3n(C4CCCC4)[nH]c(C)c-3c(=O)n2)CC1 = 6%
CCc1nn(C2CCCC2)c2nc(-c3cc(C)nc(-n4ccnc4)c3)[nH]c(=O)c12 [Example 120, hydrate] = 60%

Please turn your attention to the following entry.
Percent Inhibition cGMP-PDE I for Cc1nn(C2CCS(=O)(=O)C2)c2nc(-c3ccncc3)[nH]c(=O)c12 (stereo not shown) [Example 18c] ?
0%

====

# Tested on: cGMP-PDE I
# assay_summary: cGMP-PDE I inhibitory activity (cyclic nucleotide hydrolysis, isolated PDE isozyme)
# Format: biochemical, various animal species and man
# test_parameters: 1 μM
Label scheme, based on Percent Inhibition cGMP-PDE I: I (below 30%), II (30% to below 50%), III (50% or more)

Example results:
CCc1[nH]n(C2CCCC2)c2nc(-c3ccnc(Cl)c3)nc(=O)c1-2 [Example 125b] = III
CCc1nn(C2CCCC2)c2nc(-c3ccnc(OCCN4CCOCC4)c3)[nH]c(=O)c12 [Example 124c, hydrate] = III

# input for lookup
Exam item: assign CCc1[nH]n(C2CCCC2)c2nc(C3CCNC4CCCCC43)nc(=O)c1-2 (stereo not shown) [Example 8] to the correct category.
II

====

molecules and their reported Percent Inhibition cGMP-PDE I
# System: cGMP-PDE I
# assay_summary: cGMP-PDE I inhibitory activity (cyclic nucleotide hydrolysis, isolated PDE isozyme)
# Assay type: biochemical, various animal species and man
# test_parameters: 1 μM
State just the number; it will be interpreted in %.

CCCCCCCCn1nc(C)c2c(=O)[nH]c(-c3ccncc3)nc21 = 32

So what's the measured Percent Inhibition cGMP-PDE I for this one? Cc1nn(CCCCCCCCC(=O)O)c2nc(-c3ccncc3)[nH]c(=O)c12
54

Could you share which Percent Inhibition cGMP-PDE I value was measured for CCN(CC)CCCn1nc(C)c2c(=O)[nH]c(-c3ccncc3)nc21 [Example 99, hydrate] ?
0

GET /values?readout=Percent Inhibition cGMP-PDE I&item= CCc1[nH]n(C2CCCC2)c2nc(-c3ccnc(C)c3)nc(=O)c1-2
61

Find the recorded Percent Inhibition cGMP-PDE I belonging to Cc1[nH]n(C2CCCC2)c2nc(-c3cc[nH]c(=O)c3)nc(=O)c1-2 [Example 126b] and report it.
32

Would you mind telling me what Percent Inhibition cGMP-PDE I value was observed for CSc1[nH]n(C2CCCC2)c2nc(-c3ccncc3)nc(=O)c1-2 [Example 19c] ?
32

Quick check: Percent Inhibition cGMP-PDE I of CCc1[nH]n(C(C)(C)C)c2nc(-c3ccncc3OC)nc(=O)c1-2 ?
73

Given the entry CCc1[nH]n(C2CCCC2)c2nc(-c3cc(C)nc(Cl)c3)nc(=O)c1-2 , report its measured Percent Inhibition cGMP-PDE I.
11

Recorded Percent Inhibition cGMP-PDE I of CCc1[nH]n(C2CCCC2)c2nc(-c3ccncc3OCCOC)nc(=O)c1-2 [Example 131b] , please.
86

Can you look up the measured Percent Inhibition cGMP-PDE I of Cc1[nH]n(Cc2ccc(C(N)=O)cc2)c2nc(-c3ccncc3)nc(=O)c1-2 for me?
23

Could you tell me which Percent Inhibition cGMP-PDE I is on file for Cc1n[nH]c2nc(-c3ccncc3)[nH]c(=O)c12 ?
0

Could you share which Percent Inhibition cGMP-PDE I value was measured for Cc1[nH]n(C2CCCC2)c2nc(C3CCN(C(=O)C(F)(F)F)CC3)nc(=O)c1-2 ?
34

What Percent Inhibition cGMP-PDE I value was documented for this molecule, Cc1[nH]n(C)c2nc(-c3ccncc3)nc(=O)c1-2 ?
0

// Percent Inhibition cGMP-PDE I lookup, key: Cc1[nH]n(Cc2cc(NS(=O)(=O)c3cccc4cccnc34)ccc2Cl)c2nc(-c3ccncc3)nc(=O)c1-2
38

Bench note: what Percent Inhibition cGMP-PDE I did Cc1nn(Cc2ccccc2)c2nc(-c3ccncc3)[nH]c(=O)c12 show?
13

Can you look up the measured Percent Inhibition cGMP-PDE I of COc1cnccc1-c1nc2n(C3CCCC3)[nH]c(C(F)(F)F)c-2c(=O)n1 for me?
88

Quick check: Percent Inhibition cGMP-PDE I of O=c1[nH]c(-c2ccncc2)nc2c1c([N+](=O)[O-])nn2C1CCCC1 ?
0

Record request: Percent Inhibition cGMP-PDE I value, item O=c1nc(-c2ccncc2)nc2n(C3CCCC3)[nH]c(Cc3ccccc3)c1-2 [Example 15e]
38

Data request, read-out Percent Inhibition cGMP-PDE I, for CCc1[nH]n(C2CCCC2)c2nc(-c3ccnc(N4CCOCC4)c3)nc(=O)c1-2 [Example 129c]
64

Please give the measured Percent Inhibition cGMP-PDE I for this molecule: CN(C)c1[nH]n(C2CCCC2)c2nc(-c3ccncc3)nc(=O)c1-2 [Example 20c]
36

Dear colleague, I am looking for the recorded Percent Inhibition cGMP-PDE I of the following molecule: CCc1nn(C2CCCC2)c2nc(-c3cccn4ccnc34)[nH]c(=O)c12 [Example 114c]
5

State the recorded Percent Inhibition cGMP-PDE I for this entry: CC(C)(C)n1[nH]c(Cc2ccncc2)c2c(=O)nc(-c3ccncc3)nc1-2 [Example 123d]
90
